Where a name gives a salt, the structure may show the parent alone.
The reader will find Ki measurements below, all made with iNOS (Mus musculus).

>  <COMPOUND>
Cc1cc(N)nc(CCc2c(F)c(F)cc(CC[C@@H]3CCCN3C)c2F)c1

>  <Ki / µM>
5.88

$$$$
>  <COMPOUND>
Cc1cc(N)nc(CCc2cc(CN(C)C)cc(F)c2F)c1

>  <Ki / µM>
0.076

$$$$
>  <COMPOUND>
Cc1cc(N)nc(CCc2c(F)c(F)cc(CC[C@H]3CCCN3C)c2F)c1

>  <Ki / µM>
10

$$$$
>  <COMPOUND>
Cc1cc(N)nc(CCc2cc(CCN(C)C)cc(F)c2F)c1 [Compound 58, hydrochloride]

>  <Ki / µM>
1.05

$$$$
>  <COMPOUND>
CNCc1ccc2ncc(CCc3cc(C)cc(N)n3)cc2c1

>  <Ki / µM>
3.76

$$$$
>  <COMPOUND>
CNC/C=C\c1cc(F)cc(CCc2cc(C)cc(N)n2)c1

>  <Ki / µM>
2.28

$$$$
